- Tested on: E. coli TESEC Mtb DapB
- protocol: growth (OD600 after 10 h); higher = more growth (less inhibition)
- experimentalContext: arabinose induction (level): Low; compound 0.1 mM; raw OD600 reference: median of DMSO wells 0.227, cell-free background 0.041
Where a name gives a salt, the structure may show the parent alone.
measuredQuantity: growth
Number only, no unit.

Study these solved cases before continuing.
1. CN[C@@H]1[C@@H](O[C@H]2O[C@H](CO)[C@@H](N)[C@H](O)[C@H]2O)OC2C[C@@H](N)[C@@H](O[C@H]3[C@H](O)[C@@H](O)[C@H](N)C[C@@H]3N)OC2[C@@H]1O (some centres undefined)    0.048
2. OCC(O)CN1CCN(c2ccccc2)CC1 (racemic) [Dropropizine (R,S)]    0.248
3. CCN(CC)C(=O)N1CCN(C)CC1 [Diethylcarbamazine citrate]    0.226

Read the next record carefully.
Request: Would you kindly share the measured growth for CCc1c(C)[nH]c2c1C(=O)C(CN1CCOCC1)CC2 (centres undefined) [Molindone hydrochloride] ?
Response: 0.25

###

Recorded growth by entry
- System: E. coli TESEC Mtb DapB
- protocol: growth (OD600 after 10 h); higher = more growth (less inhibition)
- experimentalContext: arabinose induction (level): Low; compound 0.1 mM; raw OD600 reference: median of DMSO wells 0.227, cell-free background 0.041
Where a name gives a salt, the structure may show the parent alone.
Number only, no unit.

Study these solved cases before continuing.
1. Clc1ccc2nsnc2c1NC1=NCCN1 [Tizanidine HCl]    0.222
2. O=C(O)CCNC(=O)c1ccc(/N=N/c2ccc(O)c(C(=O)O)c2)cc1 [Balsalazide Sodium]    0.241
3. CC(=O)O[C@]1(C(C)=O)CC[C@H]2[C@@H]3C=C(Cl)C4=CC(=O)CC[C@]4(C)[C@H]3CC[C@@]21C [Chlormadinone acetate]    0.109
4. O=C(O)CCC(=O)c1ccc(-c2ccccc2)cc1    0.203
5. CC(=O)CC(c1ccc([N+](=O)[O-])cc1)c1c(O)c2ccccc2oc1=O (stereo not drawn)    0.189
6. Nc1ncn(C2OC(CO)C(O)C2O)c(=O)n1 (stereo not drawn)    0.193

Request: Would you kindly share the measured growth for C=C1c2cccc(O)c2C(O)=C2C(=O)[C@]3(O)C(O)=C(C(N)=O)C(=O)[C@@H](N(C)C)[C@@H]3[C@@H](O)[C@H]12 [Methacycline hydrochloride] ?
Response: 0.0603

Request: Would you kindly share the measured growth for Nc1ccc(S(=O)(=O)Nc2cnc3ccccc3n2)cc1 [Sulfaquinoxaline sodium salt] ?
Response: 0.204

###

- Tested on: E. coli TESEC Mtb Asd
- protocol: growth (OD600 after 10 h); higher = more growth (less inhibition)
- experimentalContext: arabinose induction (level): Low; compound 0.1 mM; raw OD600 reference: median of DMSO wells 0.417, cell-free background 0.041
Structures can show the parent of a compound that is named as a salt.
Recorded growth by entry

Study these solved cases before continuing.
1) CCOC(=O)[N-]c1c[n+](N2CCOCC2)no1    0.338
2) S=c1[nH]cnc2nc[nH]c12    0.167
3) CC[C@H](C)C(=O)O[C@H]1C[C@H](O)C=C2C=C[C@H](C)[C@H](CC[C@@H](O)C[C@@H](O)CC(=O)O)[C@H]21    0.37
4) N[C@@H](C(=O)N[C@@H]1C(=O)N2C(C(=O)O)=C(Cl)CS[C@H]12)c1ccccc1 [Cefaclor hydrate]    0.425
5) CN/C(=N\CCSCc1nc[nH]c1C)NC#N    0.376

Request: Would you kindly share the measured growth for Cc1c(Cl)cccc1Nc1ccccc1C(=O)O ?
Response: 0.052

Request: Would you kindly share the measured growth for CCCCc1oc2ccccc2c1C(=O)c1cc(I)c(OCCN(CC)CC)c(I)c1 [Amiodarone hydrochloride] ?
Response: 0.338

Request: Would you kindly share the measured growth for NC[C@@H]1O[C@H](O[C@H]2[C@@H](O)[C@H](O[C@@H]3[C@@H](O)[C@H](N)C[C@H](N)[C@H]3O[C@H]3O[C@H](CN)[C@@H](O)[C@H](O)[C@H]3N)O[C@@H]2CO)[C@H](N)[C@@H](O)[C@@H]1O [Neomycin sulfate] ?
Response: 0.389

###

- Test system: E. coli TESEC Mtb Alr
- protocol: growth (OD600 after 10 h); higher = more growth (less inhibition)
- experimentalContext: arabinose 10000 nM; compound 0.1 mM; raw OD600 reference: median of DMSO wells 0.264, cell-free background 0.041
Structures can show the parent of a compound that is named as a salt.
measuredQuantity: growth
Number only, no unit.

Study these solved cases before continuing.
1. CCn1cc(C(=O)O)c(=O)c2cc(F)c(N3CCNCC3)nc21    0.0392
2. COc1cc(C(=O)NC2CCCNC2)cc(OC)c1OC (stereo not drawn) [Troxipide]    0.255
3. CC(C)NCC(O)COc1ccc(CCOCC2CC2)cc1 (stereo not drawn) [Betaxolol hydrochloride]    0.26
4. C[C@]12C=CC(=O)C=C1CC[C@@H]1[C@@H]2[C@@H](O)C[C@@]2(C)[C@H]1CC[C@]2(O)C(=O)CO    0.248
5. Cc1ccccc1C(OCCN(C)C)c1ccccc1 (stereo not drawn) [Orphenadrine hydrochloride]    0.266

Request: Would you kindly share the measured growth for CO/N=C(\C(=O)N[C@@H]1C(=O)N2C(C(=O)O)=C(COC(C)=O)CS[C@H]12)c1csc(N)n1 [Cefotaxime sodium salt] ?
Response: 0.0398

Request: Would you kindly share the measured growth for CN1CCC(=C2c3ccccc3CCc3sccc32)CC1 [Pizotifen malate] ?
Response: 0.0893

Request: Would you kindly share the measured growth for Nc1nc(F)nc2c1ncn2[C@@H]1O[C@H](CO)[C@@H](O)[C@@H]1O ?
Response: 0.241

###

- Test system: E. coli TESEC Mtb Alr
- protocol: growth (OD600 after 10 h); higher = more growth (less inhibition)
- experimentalContext: arabinose 1000000 nM; compound 0.1 mM; raw OD600 reference: median of DMSO wells 0.193, cell-free background 0.041
Where a name gives a salt, the structure may show the parent alone.
measuredQuantity: growth
Number only, no unit.

Study these solved cases before continuing.
1) CCOC(=O)C1=C(C)NC(C)=C(C(=O)OCC)C1c1ccccc1/C=C/C(=O)OC(C)(C)C    0.119
2) CCCc1cc(=O)[nH]c(=S)[nH]1    0.195
3) CC(C)NCC(O)c1ccc(NS(C)(=O)=O)cc1 (stereo not drawn) [Sotalol hydrochloride]    0.138

Request: Would you kindly share the measured growth for N[C@H]1CONC1=O [(S)-(-)-Cycloserine] ?
Response: 0.188

Request: Would you kindly share the measured growth for N#Cc1ccc(C(c2ccc(C#N)cc2)n2cncn2)cc1 ?
Response: 0.16

###

- Tested on: E. coli TESEC Mtb Alr
- protocol: growth (OD600 after 10 h); higher = more growth (less inhibition)
- experimentalContext: arabinose 1000 nM; compound 0.1 mM; raw OD600 reference: median of DMSO wells 0.294, cell-free background 0.041
Counter-ions that a name gives are not always drawn.
Use yes (1) when the recorded growth is no lower than 0.2; use no (0) when it is lower.

1) CCCCC(C)(O)C/C=C/[C@H]1[C@H](O)CC(=O)[C@@H]1CCCCCCC(=O)OC (mixture of isomers)    yes (1)
2) CCc1c2c(nc3ccc(OC(=O)N4CCC(N5CCCCC5)CC4)cc13)-c1cc3c(c(=O)n1C2)COC(=O)[C@]3(O)CC [Irinotecan hydrochloride trihydrate]    yes (1)

Request: Hi team, for O=C1NCCN1c1ncc([N+](=O)[O-])s1 , is the recorded growth at or above 0.2?
Response: no (0)

Request: Hi team, for Nc1ccc(/N=N/c2ccccc2)c(N)n1 [Phenazopyridine hydrochloride] , is the recorded growth at or above 0.2?
Response: no (0)

###

- Test system: E. coli TESEC Alr+ wild-type control
- protocol: growth (OD600 after 10 h); higher = more growth (less inhibition)
- experimentalContext: compound 0.1 mM; raw OD600 reference: median of DMSO wells 0.241, cell-free background 0.041
Counter-ions that a name gives are not always drawn.
Recorded growth by entry
Number only, no unit.

1. Cn1cnc([N+](=O)[O-])c1Sc1ncnc2[nH]cnc12 [Azathioprine]    0.126
2. CC(CN1c2ccccc2Sc2ccccc21)N(C)C (stereo not given) [Promethazine hydrochloride]    0.197
3. O=C1O[C@H]([C@@H](O)CO)C(O)=C1O [Ascorbic acid]    0.255
4. NS(=O)(=O)c1cc(C(=O)O)c(NCc2ccco2)cc1Cl [Furosemide]    0.244

Read the next record carefully.
Request: Would you kindly share the measured growth for CCCCC1(COC(=O)CCC(=O)O)C(=O)N(c2ccccc2)N(c2ccccc2)C1=O [Suxibuzone] ?
Response: 0.203
